# test-details: Acute toxicity, rats
# experimental-parameters: rat, in vivo, ip, intraperitoneally, over 14 days
reported-endpoint: LD50 at 336 h (mg/kg)

smiles-input: CC(C)c1cn([C@H]2C[C@H](O)[C@@H](CO)O2)c(=O)[nH]c1=O
observed-measurement: 820

----------
# test-details: physchem
# experimental-parameters: methanol, organic solvent or mixture
reported-endpoint: solubility

smiles-input: CC(C)c1cn([C@H]2C[C@H](O)[C@@H](CO)O2)c(=O)[nH]c1=O
reported-endpoint: solubility
observed-measurement: 25.4 mg/mL

----------
# test-details: physchem
# experimental-parameters: ethanol, organic solvent or mixture

smiles-input: CC(C)c1cn([C@H]2C[C@H](O)[C@@H](CO)O2)c(=O)[nH]c1=O
solubility (mg/mL): 11
